The reported measurements were obtained from paper PMC9127587.

target: CFH18-20 (human complement factor H CCP18-20) with myc tag and His-tag (human) (UniProt P08603); assay: SPR; CFH18-20 (or W1183A) immobilised on a CM5 chip by amine coupling at around 300 RU; VHH4 or its mutants injected as analyte at 30 uL/min; single-cycle kinetics; PBS pH 7.4, Tween 20 (0.005%), 25 °C; Biacore 8K
Sequence (P08603 1046-1231): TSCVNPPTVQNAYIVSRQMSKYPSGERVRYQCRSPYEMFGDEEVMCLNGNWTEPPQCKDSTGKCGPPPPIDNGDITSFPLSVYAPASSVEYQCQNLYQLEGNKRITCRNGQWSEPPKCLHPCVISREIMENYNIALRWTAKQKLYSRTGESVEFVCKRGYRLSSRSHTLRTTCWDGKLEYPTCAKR
Rule: kon below 20000 M⁻¹ s⁻¹ gives criterion met, anything at or above gives criterion not met.

Task: Does VHH4 T108A (VHH) VHH: QVQLVESGGGLVQAGGSLRLSCAASGLTVDDYAIGWFRQAPGKEREGVSCISSSNGSTYYADSVKGRFTISSDNAKNTAYLQMNSLKPEDTAVYYCAAAVSPNLECGAGPFGIYASYYGMDYWGQGTQVTVSS have kon strictly under 20000 M⁻¹ s⁻¹?
Result: criterion met

Task: For VHH4 (VHH, alpaca VHH selected by phage display; CDR3 is Ala99-Tyr122; Disulfide bond between Cys50 and Cys106; also called VHH4 WT; WT; source: E. coli BL21 (DE3), purified (Ni-NTA, SEC)) VHH: QVQLVESGGGLVQAGGSLRLSCAASGLTVDDYAIGWFRQAPGKEREGVSCISSSNGSTYYADSVKGRFTISSDNAKNTAYLQMNSLKPEDTAVYYCAAAVSPNLECGTGPFGIYASYYGMDYWGQGTQVTVSS , is the recorded kon below the cut-off of 20000 M⁻¹ s⁻¹?
Result: criterion not met

Task: Threshold test, kon < 20000 M⁻¹ s⁻¹: VHH4 G119A (VHH) VHH: QVQLVESGGGLVQAGGSLRLSCAASGLTVDDYAIGWFRQAPGKEREGVSCISSSNGSTYYADSVKGRFTISSDNAKNTAYLQMNSLKPEDTAVYYCAAAVSPNLECGTGPFGIYASYYAMDYWGQGTQVTVSS
Result: criterion not met

Task: Take the binder VHH4 P110A (VHH) VHH: QVQLVESGGGLVQAGGSLRLSCAASGLTVDDYAIGWFRQAPGKEREGVSCISSSNGSTYYADSVKGRFTISSDNAKNTAYLQMNSLKPEDTAVYYCAAAVSPNLECGTGAFGIYASYYGMDYWGQGTQVTVSS and say whether its kon is less than 20000 M⁻¹ s⁻¹.
Result: criterion met

Task: Dear reviewer, please state whether VHH4 W123A (VHH) VHH: QVQLVESGGGLVQAGGSLRLSCAASGLTVDDYAIGWFRQAPGKEREGVSCISSSNGSTYYADSVKGRFTISSDNAKNTAYLQMNSLKPEDTAVYYCAAAVSPNLECGTGPFGIYASYYGMDYAGQGTQVTVSS has kon strictly beneath 20000 M⁻¹ s⁻¹.
Result: criterion not met

Task: Does the reported kon of VHH4 P102A (VHH) VHH: QVQLVESGGGLVQAGGSLRLSCAASGLTVDDYAIGWFRQAPGKEREGVSCISSSNGSTYYADSVKGRFTISSDNAKNTAYLQMNSLKPEDTAVYYCAAAVSANLECGTGPFGIYASYYGMDYWGQGTQVTVSS stay below 20000 M⁻¹ s⁻¹?
Result: criterion not met

Task: Dear colleague, could you confirm whether kon of VHH4 Y95A (VHH) VHH: QVQLVESGGGLVQAGGSLRLSCAASGLTVDDYAIGWFRQAPGKEREGVSCISSSNGSTYYADSVKGRFTISSDNAKNTAYLQMNSLKPEDTAVYACAAAVSPNLECGTGPFGIYASYYGMDYWGQGTQVTVSS falls below 20000 M⁻¹ s⁻¹? Thanks.
Result: criterion not met

Task: Below 20000 M⁻¹ s⁻¹ on kon? Entry VHH4 Y117A (VHH) VHH: QVQLVESGGGLVQAGGSLRLSCAASGLTVDDYAIGWFRQAPGKEREGVSCISSSNGSTYYADSVKGRFTISSDNAKNTAYLQMNSLKPEDTAVYYCAAAVSPNLECGTGPFGIYASAYGMDYWGQGTQVTVSS
Result: criterion met
